- Target Under Test: 5-HT2C receptor (Homo sapiens, UniProt P28335)
- Construct: expressed in transfected cells; host or cells: HEK-293 cells
- Sequence (P28335 33-458): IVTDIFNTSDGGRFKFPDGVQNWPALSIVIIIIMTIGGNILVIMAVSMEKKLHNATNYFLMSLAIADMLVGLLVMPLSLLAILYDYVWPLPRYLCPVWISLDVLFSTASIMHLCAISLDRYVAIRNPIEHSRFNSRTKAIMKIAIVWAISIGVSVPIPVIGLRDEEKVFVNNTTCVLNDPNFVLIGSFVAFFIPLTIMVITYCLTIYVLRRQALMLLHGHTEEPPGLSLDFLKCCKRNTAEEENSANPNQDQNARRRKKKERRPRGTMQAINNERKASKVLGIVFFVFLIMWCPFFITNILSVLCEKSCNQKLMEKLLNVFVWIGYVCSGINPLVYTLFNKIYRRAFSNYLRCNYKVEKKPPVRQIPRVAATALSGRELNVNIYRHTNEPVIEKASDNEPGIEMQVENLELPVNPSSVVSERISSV
- Experiment Description: Radioligand binding assay, serotoninergic 5-HT2C receptors
- Run Parameters: test compound 1×10^−6 M
Would you please tag the item yes when its inhibition at 1 µM is 80% or above, and no when it is below?

Query: For this compound, is measured inhibition at 1 µM 80% or higher? O=S(=O)(N[C@@H]1CCN(CCCc2noc3cc(F)ccc23)C1)c1cc2ccc(Cl)cc2s1 [Compound 198]
Reply: yes

Query: Reported inhibition at 1 µM at or above 80%? O=S(=O)(NC1CN(CCOc2cccc3[nH]ccc23)C1)c1cccc(Cl)c1 [Compound 47]
Reply: no
